- Target entity: human wild-type (WT)-pendrin (Homo sapiens)
- Construct: expressed in transfected cells
- Sequence (O43511 1-780): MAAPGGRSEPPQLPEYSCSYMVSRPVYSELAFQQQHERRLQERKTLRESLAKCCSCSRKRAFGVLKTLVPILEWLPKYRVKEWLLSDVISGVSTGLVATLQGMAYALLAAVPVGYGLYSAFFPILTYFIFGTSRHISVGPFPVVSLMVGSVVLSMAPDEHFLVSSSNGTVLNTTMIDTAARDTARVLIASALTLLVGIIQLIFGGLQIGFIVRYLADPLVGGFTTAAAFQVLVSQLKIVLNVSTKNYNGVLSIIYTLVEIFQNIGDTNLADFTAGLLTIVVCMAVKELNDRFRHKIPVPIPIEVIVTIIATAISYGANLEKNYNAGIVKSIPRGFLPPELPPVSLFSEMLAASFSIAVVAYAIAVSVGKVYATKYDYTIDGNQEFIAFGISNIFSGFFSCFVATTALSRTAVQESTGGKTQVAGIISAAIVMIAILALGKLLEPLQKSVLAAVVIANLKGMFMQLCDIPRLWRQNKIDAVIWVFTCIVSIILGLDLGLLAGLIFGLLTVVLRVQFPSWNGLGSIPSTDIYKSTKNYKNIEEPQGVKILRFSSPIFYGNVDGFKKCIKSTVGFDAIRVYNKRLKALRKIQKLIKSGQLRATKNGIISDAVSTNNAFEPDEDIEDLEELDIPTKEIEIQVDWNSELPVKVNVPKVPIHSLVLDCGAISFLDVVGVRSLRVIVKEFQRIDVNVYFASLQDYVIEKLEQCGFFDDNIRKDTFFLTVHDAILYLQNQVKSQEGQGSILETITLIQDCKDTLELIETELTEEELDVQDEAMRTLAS
- Test: Pendrin Cl−/I− exchange inhibitory activity, YFP fluorescence in CHO-K1 cells
- Assay type: cell-based
- Applied conditions: CHO-K1; compound concentration 100 μM
Parameter measured: inhibition at 100 µM (%)

Worked cases, answers included:
Compound | inhibition at 100 µM, %
Cc1ccc(C)c(N2CCN(C(=O)Cc3c(C(=O)O)[nH]c4ccc(Cl)cc34)CC2)c1 [YPI-H05] | 96.5
O=C(O)c1[nH]c2ccc(Cl)cc2c1CC(=O)N1CCN(c2ccc(Cl)cc2Cl)CC1 [YPI-A4887] | 89.9
O=C(O)c1[nH]c2ccc(Cl)cc2c1CC(=O)N1CCN(c2ccccc2Cl)CC1 [YPI-A4803] | 95.7
O=C(O)c1[nH]c2ccc(Cl)cc2c1CC(=O)N1CCN(c2ccc(F)cc2F)CC1 [YPI-A4915] | 93.3

(P) Cc1ccc2[nH]c(C(=O)O)c(CC(=O)N3CCN(c4c(C)cccc4C)CC3)c2c1 [YPI-A4946]
(Q) Cc1cc(C)c2[nH]c(C(=O)O)c(CC(=O)N3CCN(c4c(C)cccc4C)CC3)c2c1 [YPI-A4947]
Task: Identify the item whose inhibition at 100 µM is the smaller number: P or Q Provide the label of your selected option as the answer.
Result: Q
(Q: 41.9%, P: 95.6%)

----------
# inhibition at 3 µM per entry
- Target entity: human wild-type (WT)-pendrin (Homo sapiens)
- Construct: expressed in transfected cells
- Sequence (O43511 1-780): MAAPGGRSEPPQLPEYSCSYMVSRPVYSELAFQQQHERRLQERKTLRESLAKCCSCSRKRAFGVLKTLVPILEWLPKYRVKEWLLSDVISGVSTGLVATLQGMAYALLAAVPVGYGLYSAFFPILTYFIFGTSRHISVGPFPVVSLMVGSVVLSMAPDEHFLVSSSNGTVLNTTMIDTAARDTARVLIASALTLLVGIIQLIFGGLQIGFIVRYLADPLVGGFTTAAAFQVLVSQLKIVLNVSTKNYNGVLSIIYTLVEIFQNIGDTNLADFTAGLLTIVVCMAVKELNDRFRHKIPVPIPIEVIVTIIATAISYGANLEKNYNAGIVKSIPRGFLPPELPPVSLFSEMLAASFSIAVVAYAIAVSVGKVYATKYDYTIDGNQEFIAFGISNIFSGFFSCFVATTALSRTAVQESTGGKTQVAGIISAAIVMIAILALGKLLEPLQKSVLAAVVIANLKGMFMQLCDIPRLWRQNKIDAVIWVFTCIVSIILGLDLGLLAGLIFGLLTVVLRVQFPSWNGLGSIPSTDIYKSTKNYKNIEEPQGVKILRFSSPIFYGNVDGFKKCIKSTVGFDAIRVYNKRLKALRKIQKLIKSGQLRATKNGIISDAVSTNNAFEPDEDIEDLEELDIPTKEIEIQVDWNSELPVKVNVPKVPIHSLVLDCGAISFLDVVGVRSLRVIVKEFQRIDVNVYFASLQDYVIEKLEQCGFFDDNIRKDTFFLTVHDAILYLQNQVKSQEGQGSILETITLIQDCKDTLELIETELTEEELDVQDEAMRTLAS
- Test: Pendrin Cl−/I− exchange inhibitory activity, YFP fluorescence in CHO-K1 cells
- Assay type: cell-based
- Applied conditions: CHO-K1; compound concentration 3 μM

Worked cases, answers included:
Compound | inhibition at 3 µM
O=C(O)c1[nH]c2ccc(Cl)cc2c1CC(=O)N1CCN(c2ccccc2Cl)CC1 [YPI-A4803] | < 20%
Cc1cccc(N2CCN(C(=O)Cc3c(C(=O)O)[nH]c4ccc(Cl)cc34)CC2)c1 [YPI-A4848] | < 20%
O=C(O)c1[nH]c2ccc(Cl)cc2c1CC(=O)N1CCN(c2ccccc2F)CC1 [YPI-A4917] | < 20%

Task: Could you share what inhibition at 3 µM was measured for Cc1ccc2[nH]c(C(=O)O)c(CC(=O)N3CCN(c4ccc(C(C)(C)C)cc4)CC3)c2c1 [YPI-A4944] , tested on human wild-type (WT)-pendrin (Homo sapiens)?
Result: < 20%

Task: Could you share what inhibition at 3 µM was measured for O=C(O)c1ccc(N2CCN(C(=O)Cc3c(C(=O)O)[nH]c4ccc(Cl)cc34)CC2)cc1 [YPI-A4919] , tested on human wild-type (WT)-pendrin (Homo sapiens)?
Result: < 20%

Task: Could you share what inhibition at 3 µM was measured for O=C(O)c1[nH]c2ccc(Cl)cc2c1CC(=O)N1CCN(c2ccc(Cl)cc2Cl)CC1 [YPI-A4887] , tested on human wild-type (WT)-pendrin (Homo sapiens)?
Result: 50.8%

Task: Could you share what inhibition at 3 µM was measured for COc1cccc(N2CCN(C(=O)Cc3c(C(=O)O)[nH]c4ccc(Cl)cc34)CC2)c1 [YPI-A4877] , tested on human wild-type (WT)-pendrin (Homo sapiens)?
Result: < 20%

Task: Could you share what inhibition at 3 µM was measured for O=C(O)c1[nH]c2ccc(Cl)cc2c1CC(=O)N1CCN(c2cccc(Br)c2)CC1 [YPI-A4845] , tested on human wild-type (WT)-pendrin (Homo sapiens)?
Result: < 20%

Task: Could you share what inhibition at 3 µM was measured for O=C(O)c1[nH]c2ccc(Cl)cc2c1CC(=O)N1CCN(c2cc(Cl)c(Cl)c(Cl)c2)CC1 [YPI-A4916] , tested on human wild-type (WT)-pendrin (Homo sapiens)?
Result: 45.7%

Task: Could you share what inhibition at 3 µM was measured for CC(=O)c1ccc(N2CCN(C(=O)Cc3c(C(=O)O)[nH]c4ccc(Cl)cc34)CC2)cc1 [YPI-A4920] , tested on human wild-type (WT)-pendrin (Homo sapiens)?
Result: < 20%

Task: Could you share what inhibition at 3 µM was measured for COc1ccc(N2CCN(C(=O)Cc3c(C(=O)O)[nH]c4ccc(Cl)cc34)CC2)cc1 [YPI-A4878] , tested on human wild-type (WT)-pendrin (Homo sapiens)?
Result: < 20%

Task: Could you share what inhibition at 3 µM was measured for CCOc1ccc(N2CCN(C(=O)Cc3c(C(=O)O)[nH]c4ccc(Cl)cc34)CC2)cc1 [YPI-A4921] , tested on human wild-type (WT)-pendrin (Homo sapiens)?
Result: < 20%

Task: Could you share what inhibition at 3 µM was measured for Cc1c(Cl)cccc1N1CCN(C(=O)Cc2c(C(=O)O)[nH]c3ccc(Cl)cc23)CC1 [YPI-A4918] , tested on human wild-type (WT)-pendrin (Homo sapiens)?
Result: 34.7%

Task: Could you share what inhibition at 3 µM was measured for O=C(O)c1[nH]c2ccc(Cl)cc2c1CC(=O)N1CCN(c2ccc(C(F)(F)F)cc2)CC1 [YPI-A4779] , tested on human wild-type (WT)-pendrin (Homo sapiens)?
Result: < 20%

Task: Could you share what inhibition at 3 µM was measured for O=C(O)c1[nH]c2ccc(Cl)cc2c1CC(=O)N1CCN(c2ccccc2)CC1 [YPI-A4881] , tested on human wild-type (WT)-pendrin (Homo sapiens)?
Result: < 20%

Task: Could you share what inhibition at 3 µM was measured for Cc1ccc2[nH]c(C(=O)O)c(CC(=O)N3CCN(c4c(C)cccc4Cl)CC3)c2c1 [YPI-A4948] , tested on human wild-type (WT)-pendrin (Homo sapiens)?
Result: 93.6%

Task: Could you share what inhibition at 3 µM was measured for Cc1cccc(N2CCN(C(=O)Cc3c(C(=O)O)[nH]c4ccc(Cl)cc34)CC2)c1C [YPI-A4799] , tested on human wild-type (WT)-pendrin (Homo sapiens)?
Result: 65.3%
